assay summary: statin-free myotube ATP level counter-assay – cell-based, no simvastatin, luminescence, dry powder, counter-screen for statin myotoxicity suppressor project, dose response (AID 743334)
experimental setup: C2C12 myotubes ATP, CellTiter-Glo luminescence, 48 h; stronger effect = higher value
Catalogue of max activity values

smiles text	max activity [%]
N#C[C@H]1[C@H](c2ccc(-c3cccc(F)c3)cc2)[C@H](CO)N1C(=O)NC1CCCC1	-7.45
C[C@H](CO)N1C[C@H](C)[C@H](CN(C)Cc2ccc(C(=O)Nc3ccccc3N)cc2)Oc2ccc(NC(=O)Nc3ccc(F)cc3)cc2CC1=O	-33.9
N#C[C@H]1[C@@H](c2ccc(-c3cccc(F)c3)cc2)[C@@H](CO)N1C(=O)NC1CCCC1	-0.663
N#C[C@@H]1[C@@H](c2ccc(-c3cccc(F)c3)cc2)[C@H](CO)N1C(=O)c1cccnc1	6.17
C[C@H]1CN([C@@H](C)CO)C(=O)Cc2cc(NC(=O)CCCCCC(=O)Nc3ccccc3N)ccc2O[C@@H]1CN(C)Cc1ccc(Oc2ccccc2)cc1	-15.5
C[C@H](CO)N1C[C@H](C)[C@H](CN(C)Cc2ccc(Oc3ccccc3)cc2)Oc2ccc(NC(=O)CCCCCC(=O)Nc3ccccc3N)cc2CC1=O	-48.9
N#C[C@H]1[C@H](c2ccc(-c3cccc(F)c3)cc2)[C@@H](CO)N1C(=O)NC1CCCC1	1.15

###

assay summary: statin-free myotube ATP level counter-assay – cell-based, no simvastatin, luminescence, dry powder, counter-screen for statin myotoxicity suppressor project, dose response (AID 743334)
experimental setup: C2C12 myotubes ATP, CellTiter-Glo luminescence, 48 h; stronger effect = higher value
Catalogue of max activity values

smiles text	max activity [%]
C[C@H]1CN([C@@H](C)CO)C(=O)Cc2cc(NS(=O)(=O)c3ccc(Cl)cc3)ccc2O[C@@H]1CN(C)CC1CCCCC1	4.91
N#C[C@@H]1[C@@H](c2ccc(-c3cccc(F)c3)cc2)[C@@H](CO)N1C(=O)NC1CCCC1	2.16
N#C[C@@H]1[C@H](c2ccc(-c3cccc(F)c3)cc2)[C@@H](CO)N1C(=O)NC1CCCC1	-0.345
C[C@H](CO)N1C[C@H](C)[C@H](CN(C)Cc2ccc(C(=O)Nc3ccccc3N)cc2)Oc2ccc(NC(=O)Nc3cccc4ccccc34)cc2C1=O	-0.211
